These entries and their values trace back to patent US9006173B2.

# System: OATP1B3
# procedure-summary: in vitro
# condition-context: human
quantity-kind: pIC50
Numbers only, as −log10 of the molar value.

Which pIC50 is reported with OATP1B3 for this entry: "C=C1[C@@H](O)[C@@H]2O[C@]3(CC[C@H](/C=C/[C@@H](C)[C@@H]4CC(C)=C[C@@]5(O[C@H](C[C@@](C)(O)C(=O)O)CC[C@H]5O)O4)O3)CC[C@H]2O[C@@H]1[C@@H](O)C[C@H](C)[C@H]1O[C@@]2(CCCCO2)CC[C@H]1C" ?
8.52

----------
# System: OATP1B3-transfected HeLa cells
# condition-context: read-out: Growth Inhibition OATP1B3 IC50
Numbered stars: 1 amine (or outer) side, 2 acyl side, 3 side chain; on linkers, the order of the positions; unused ones are H or OH. Bridge positions count the residues as written; N and C are the ends. Square brackets hold non-standard residues; d marks the D form. Peptide text beside a SMILES is read from it. Adda = CO[C@@H](Cc1ccccc1)[C@@H](C)/C=C(C)/C=C/[C@H](N[*:1])[C@H](C)C(=O)[*:2]; dAsp(3S-Me) = C[C@H](C(=O)[*:3])[C@@H](N[*:1])C(=O)[*:2]; d(γGlu) = O=C(O)[C@@H](CCC(=O)[*:2])N[*:1]; NMeDha = C=C(NC)C(=O)O
quantity-kind: IC50 (nM)
Answers are plain numbers, in nM.

Each of the following entries comes with a recorded value; kindly state IC50 for each.
1. C=C1C(=O)N[C@H](C)C(=O)N[C@@H](Cc2ccc(O)cc2)C(=O)N[C@@H](C(=O)O)[C@H](C)C(=O)N[C@@H](CCCNC(=N)N)C(=O)N[C@@H](/C=C/C(C)=C/[C@H](C)[C@H](Cc2ccccc2)OC)[C@H](C)C(=O)N[C@@H](C(=O)O)CCC(=O)N1C [Microcystin YR, microcystin YR] (R[Adda][d(γGlu)][NMeDha][dA]Y[dAsp(3S-Me)]-OH; lactam N-7)
2. C=C1C(=O)N[C@H](C)C(=O)N[C@@H](CC(C)C)C(=O)N[C@@H](C(=O)O)[C@H](C)C(=O)N[C@@H](Cc2ccccc2)C(=O)N[C@@H](/C=C/C(C)=C/[C@H](C)[C@H](Cc2ccccc2)OC)[C@H](C)C(=O)N[C@@H](C(=O)O)CCC(=O)N1C [Microcystin LF, microcystin LF] (F[Adda][d(γGlu)][NMeDha][dA]L[dAsp(3S-Me)]-OH; lactam N-7)
3. C=C1C(=O)N[C@H](C)C(=O)N[C@@H](CC(C)C)C(=O)N[C@@H](C(=O)O)[C@H](C)C(=O)N[C@@H](CCCNC(=N)N)C(=O)N[C@@H](/C=C/C(C)=C/[C@H](C)[C@H](Cc2ccccc2)OC)[C@H](C)C(=O)N[C@@H](C(=O)O)CCC(=O)N1C [Microcystin LR, microcystin LR] (R[Adda][d(γGlu)][NMeDha][dA]L[dAsp(3S-Me)]-OH; lactam N-7)

45
0.9
39

----------
# Test system: OATP1B1
# procedure-summary: in vitro
# condition-context: human
quantity-kind: IC50 (nM)
One number for each entry, in nM.

Dear colleague, I am looking for the recorded IC50 of the following compound: C=C1[C@@H](O)[C@@H]2O[C@]3(CC[C@H](/C=C/[C@@H](C)[C@@H]4CC(C)=C[C@@]5(O[C@H](C[C@@](C)(O)C(=O)O)CC[C@H]5O)O4)O3)CC[C@H]2O[C@@H]1[C@@H](O)C[C@H](C)[C@H]1O[C@@]2(CCCCO2)CC[C@H]1C [Okadaic acid]
2.2
